System: MCF7
Assay: Cell cycle arrest in MCF7 cells assessed as accumulation at G2/M phase at 200 uM after 48 hrs by flow cytometry
Assay type: functional, Homo sapiens

# COMPOUND_SMILES, READING_UNIT, Activity
data = [
    ("COc1ccc2c(OC)c(NC(=O)c3ccc4c(c3)CCC(C)(C)O4)c(=O)oc2c1C", "%", 11.9),
    ("COc1ccc2c(O)c(NC(=O)c3ccc4c(c3)CCC(C)(C)O4)c(=O)oc2c1C", "%", 10.7),
    ("Cc1c(O)ccc2c(O)c(NC(=O)c3ccc4c(c3)CCC(C)(C)O4)c(=O)oc12", "%", 14.4),
    ("CO[C@@H]1[C@@H](OC(N)=O)[C@@H](O)[C@H](Oc2ccc3c(O)c(NC(=O)c4ccc(O)c(CC=C(C)C)c4)c(=O)oc3c2C)OC1(C)C", "%", 19.3),
    ("COc1ccc(C(=O)Nc2c(OC)c3ccc(OC)c(C)c3oc2=O)cc1CC=C(C)C", "%", 10.8),
    ("Cc1ccc(S(=O)(=O)Oc2ccc3c(-c4ccc(Cl)cc4)c(NC(=O)c4ccc5c(c4)CCC(C)(C)O5)c(=O)oc3c2C)cc1", "%", 9.9),
    ("COc1ccc(-c2c(NC(=O)c3ccc4c(c3)CCC(C)(C)O4)c(=O)oc3c(C)c(OC)ccc23)cc1", "%", 11.5),
]

---

Below, each entry is listed with its recorded Activity.
Tested on: MCF7
Assay: Cell cycle arrest in MCF7 cells assessed as accumulation at subG1 phase at 200 uM after 48 hrs by flow cytometry
Format: functional, Homo sapiens
MEASURED_PROPERTY: Activity (%)

# COMPOUND_SMILES, TESTED_SYSTEM, MEASURED_PROPERTY, RESULT
rows = [
    ("COc1ccc(-c2c(NC(=O)c3ccc4c(c3)CCC(C)(C)O4)c(=O)oc3c(C)c(OC)ccc23)cc1", "MCF7", "Activity", 3.7),
    ("Cc1c(O)ccc2c(O)c(NC(=O)c3ccc4c(c3)CCC(C)(C)O4)c(=O)oc12", "MCF7", "Activity", 7.7),
    ("COc1ccc2c(O)c(NC(=O)c3ccc4c(c3)CCC(C)(C)O4)c(=O)oc2c1C", "MCF7", "Activity", 3.3),
    ("COc1ccc(C(=O)Nc2c(OC)c3ccc(OC)c(C)c3oc2=O)cc1CC=C(C)C", "MCF7", "Activity", 3.6),
    ("Cc1ccc(S(=O)(=O)Oc2ccc3c(-c4ccc(Cl)cc4)c(NC(=O)c4ccc5c(c4)CCC(C)(C)O5)c(=O)oc3c2C)cc1", "MCF7", "Activity", 3.8),
    ("CO[C@@H]1[C@@H](OC(N)=O)[C@@H](O)[C@H](Oc2ccc3c(O)c(NC(=O)c4ccc(O)c(CC=C(C)C)c4)c(=O)oc3c2C)OC1(C)C", "MCF7", "Activity", 5.9),
    ("COc1ccc2c(OC)c(NC(=O)c3ccc4c(c3)CCC(C)(C)O4)c(=O)oc2c1C", "MCF7", "Activity", 7.5),
]

---

Test system: MCF7
Experiment: Cell cycle arrest in MCF7 cells assessed as accumulation at G0/G1 phase at 200 uM after 48 hrs by flow cytometry
Assay type: functional, Homo sapiens
MEASURED_PROPERTY: Activity (%)

# COMPOUND_SMILES, TESTED_SYSTEM, READING_UNIT, RESULT
data = [
    ("Cc1ccc(S(=O)(=O)Oc2ccc3c(-c4ccc(Cl)cc4)c(NC(=O)c4ccc5c(c4)CCC(C)(C)O5)c(=O)oc3c2C)cc1", "MCF7", "%", 70.4),
    ("COc1ccc2c(O)c(NC(=O)c3ccc4c(c3)CCC(C)(C)O4)c(=O)oc2c1C", "MCF7", "%", 71.9),
    ("COc1ccc(C(=O)Nc2c(OC)c3ccc(OC)c(C)c3oc2=O)cc1CC=C(C)C", "MCF7", "%", 73.3),
    ("Cc1c(O)ccc2c(O)c(NC(=O)c3ccc4c(c3)CCC(C)(C)O4)c(=O)oc12", "MCF7", "%", 46.5),
    ("COc1ccc2c(OC)c(NC(=O)c3ccc4c(c3)CCC(C)(C)O4)c(=O)oc2c1C", "MCF7", "%", 56.7),
    ("CO[C@@H]1[C@@H](OC(N)=O)[C@@H](O)[C@H](Oc2ccc3c(O)c(NC(=O)c4ccc(O)c(CC=C(C)C)c4)c(=O)oc3c2C)OC1(C)C", "MCF7", "%", 59.9),
    ("COc1ccc(-c2c(NC(=O)c3ccc4c(c3)CCC(C)(C)O4)c(=O)oc3c(C)c(OC)ccc23)cc1", "MCF7", "%", 71),
]
